method_summary: HEK293-F cell count and viability by flow cytometry after transfection in suspension culture (Example 5)
Assay type: cell-based, human
Set-up: concentration or dose not given beside the values
experimental_conditions: human, HEK293-F cells in suspension culture (shake flasks), AAV1 plasmids, 48 h post-transf
Ends that are not written are not given here.
quantity_name: viability at 48 h (%)
Field format: number, assumed %, no unit text.

Query: What does the record list as viability at 48 h for WEARLARALARALARHLARALARALRACEA [RALA] ?
Result: 86.1

----------
method_summary: HEK293-F cell count and viability by flow cytometry after transfection in suspension culture (Example 5)
Format: cell-based, human
Parameters: concentration or dose not given beside the values
experimental_conditions: human, HEK293-F cells in suspension culture (shake flasks), AAV2 plasmids, 72 h post-transf
Ends that are not written are not given here.
quantity_name: viability at 72 h (%)
Field format: number, assumed %, no unit text.

Query: What does the record list as viability at 72 h for WEARLARALARALARHLARALARALRACEA [RALA] ?
Result: 76

Data credit: patent US20250011809A1
